Test system: Bacillus subtilis
TEST: cleaved RNA product abundance (RNA/gDNA barcode ratio) relative to median wild-type variant (ratio to wild type); higher = more accumulation of the downstream cleavage product
CONDITIONS USED: experiment (reporter, strain, medium): exp 4a: truncated aprE reporter, strain BJT201 with 2% xylose (RNase J1 expressed); cleavage site: cggR-gapA (positions -7 to +36 mutated)
Record Yes whenever cleaved RNA product abundance is at 0.3 or higher; record No when lower.

[[record]]
sequence_chain = "ACAGACGAAGGAGCCGCCAAGAAGTTATTAAGGTATGAATAATCCCTCAATATAAATATCTCTCACTTATTTAAA"
class_label = "No"

[[record]]
sequence_chain = "ACAGACGAAGGAGCCGCAAAGAAGTTATTAAGGGATGAATAATCCCTGAATATATATATCTCTCACTTATTTAAA"
class_label = "Yes"

[[record]]
sequence_chain = "ACAGACGAAGGAGCCGCAAAGAAGTCATTAAGGGATGAATAATCCCACAATATAAATATCTCTCACTTATTTAAA"
class_label = "No"

[[record]]
sequence_chain = "ACAGACGAAGGAGCCGCAAAGAAGATATTAAAGGATGAATAATCCCTCAATATAAATATCTCTCACTTATTTAAA"
class_label = "No"

[[record]]
sequence_chain = "ACAGACGAAGGAGCCGCAAAGAAGTTATTAAGGGTTGATTAATCCCTCAATATAAATATCTCTCACTTATTTAAA"
class_label = "Yes"


Check if cleaved RNA product abundance >= 0.3 (inclusive). Item: ACAGACGAAGGAGCCGCATAGAAGTTATTAAGGGATGAATAATCGCTCAATATAAATATCTCTCACTTATTTAAA No

Item ACAGACGAAGGAGCCGCAAAGATGTTATTAAGGGATGAATAATCCATCAATATAAATATCTCTCACTTATTTAAA with cleaved RNA product abundance of 0.3 or above? Yes

Would you say ACAGACGAAGGAGCCGCAAAGAAGTTATTAAGGGATGAATGATCCCTCAATATAAAAATCTCTCACTTATTTAAA shows cleaved RNA product abundance at minimum 0.3? Yes

###

Tested on: Bacillus subtilis
TEST: cleaved RNA product abundance (RNA/gDNA barcode ratio) relative to median wild-type variant (ratio to wild type); higher = more accumulation of the downstream cleavage product
CONDITIONS USED: experiment (reporter, strain, medium): exp 4a: truncated aprE reporter, strain BJT201 with 2% xylose (RNase J1 expressed); cleavage site: cggR-gapA (positions -7 to +36 mutated)
Label 1 when cleaved RNA product abundance >= 0.3; otherwise 0.

Past entries and their recorded results:
[[record]]
sequence_chain = "ACAGACGAAGGAGCCGCAAAGAAGTTATTAAAGGATGAATACTCCCTCAATATAAATATCTCTCACTTATTTAAA"
class_label = 0

[[record]]
sequence_chain = "ACAGACGAAGGAGCCGCAAAGAAGTTATAAAGGGATGAATAATCCCTCAATATAAATAACTCTCACTTATTTAAA"
class_label = 1

[[record]]
sequence_chain = "ACAGACGAAGGAGCCGCAAAGAAGTTATTAATGGATGAACAATCCCTCAATATAAATATCTCTCACTTATTTAAA"
class_label = 0

[[record]]
sequence_chain = "ACAGACGAAGGAGCCGCAAAGAAGTTATTAAGGGATGAATCATCCCTCAATAAAAATATCTCTCACTTATTTAAA"
class_label = 0

[[record]]
sequence_chain = "ACAGACGAAGGAGCCGCAAGGAAGTTATCAAGGGATGAATAATCCCTCAATATAAATATCTCTCACTTATTTAAA"
class_label = 1

[[record]]
sequence_chain = "ACAGACGAAGGAGCCGCAAAGAAGTTATTAAGGGATGAATACTCCCTCAATAGAAATATCTCTCACTTATTTAAA"
class_label = 0

[[record]]
sequence_chain = "ACAGACGAAGGAGCCGCAAAGAAGTTATTGCGGGATGAATAATCCCTCAATATAAATATCTCTCACTTATTTAAA"
class_label = 1

[[record]]
sequence_chain = "ACAGACGAAGGAGCCGCAAAGAAGTTATTAAGGGATGAATAATCCCTAAATACAAATATCTCTCACTTATTTAAA"
class_label = 0


Dear colleague, could you confirm whether ACAGACGAAGGAGCCGCAAACAATTTATTAAGGGATGAATAATCCCTCAATATAAATATCTCTCACTTATTTAAA has cleaved RNA product abundance at or above 0.3? 1

For this sequence, is measured cleaved RNA product abundance 0.3 or higher? ACAGACGAAGGAGCCGCAAAGAAGTTATTAAGGAATGAATATTCCCTCAATATAAATATCTCTCACTTATTTAAA 0

In plain terms: is recorded cleaved RNA product abundance at least 0.3 for ACAGACGAAGGAGCCGCAAAGAAGTTATTAAGGGATGAACAATCCCTCAATAAAAATATCTCTCACTTATTTAAA ? 0

###

Tested on: Bacillus subtilis
TEST: cleaved RNA product abundance (RNA/gDNA barcode ratio) relative to median wild-type variant (ratio to wild type); higher = more accumulation of the downstream cleavage product
CONDITIONS USED: experiment (reporter, strain, medium): exp 4a: truncated aprE reporter, strain BJT201 with 2% xylose (RNase J1 expressed); cleavage site: cggR-gapA (positions -7 to +36 mutated)
MEASUREMENT KIND: cleaved RNA product abundance
Give the figure by itself; no unit, no explanation.

In the examples that follow, each entry is paired with its recorded cleaved RNA product abundance.
[[record]]
sequence_chain = "ACAGACGAAGGAGCCGCAAAGAAGTTATTAAGAGATGAATAATCGCTCAATATAAATATCTCTCACTTATTTAAA"
numeric_value = 0.0997

[[record]]
sequence_chain = "ACAGACGAAGGAGCCGCAAAGAAGTTATTAAGGGATGAATAATCCATCAATATAAATATTTCTCACTTATTTAAA"
numeric_value = 0.286

[[record]]
sequence_chain = "ACAGACGAAGGAGCCGCAAAGAAGTTATTAAGAGATGAATAATCCCTCATTATAAATATCTCTCACTTATTTAAA"
numeric_value = 0.177


Return cleaved RNA product abundance for the following sequence: ACAGACGAAGGAGCCGCAAAGAAGTTATTTAGGGATGAATAATCCCTCAATTTAAATATCTCTCACTTATTTAAA 0.119

###

Examples of sequences with documented cleaved RNA product abundance follow.
Test system: Bacillus subtilis
TEST: cleaved RNA product abundance (RNA/gDNA barcode ratio) relative to median wild-type variant (ratio to wild type); higher = more accumulation of the downstream cleavage product
CONDITIONS USED: experiment (reporter, strain, medium): exp 4a: truncated aprE reporter, strain BJT201 with 2% xylose (RNase J1 expressed); cleavage site: cggR-gapA (positions -7 to +36 mutated)
Just the number, please, no unit attached.

These recorded examples may help you get a feel for the data.
[[record]]
sequence_chain = "ACAGACGAAGGAGCCGCAAAGAAGTTATTAAGGGAAGAATAATGCCTCAATATAAATATCTCTCACTTATTTAAA"
target_desc = "Bacillus subtilis"
numeric_value = 0.132

[[record]]
sequence_chain = "ACAGACGAAGGAGCCGCAAAGAAGTTATTAAGGTATGAATAATCCCTCAATATAAATTTCTCTCACTTATTTAAA"
target_desc = "Bacillus subtilis"
numeric_value = 0.17

[[record]]
sequence_chain = "ACAGACGAAGGAGCCGCAAAGAAGTTATTAAGGAATGAATAATCCCTCAATATAAGTATCTCTCACTTATTTAAA"
target_desc = "Bacillus subtilis"
numeric_value = 0.0312

[[record]]
sequence_chain = "ACAGACGAAGGAGCCGCAAAGAAGTTATTATGGGATGAATAATCCCTCAATATCAATATCTCTCACTTATTTAAA"
target_desc = "Bacillus subtilis"
numeric_value = 0.0948

[[record]]
sequence_chain = "ACAGACGAAGGAGCCGCAATGAAGTTATTTAGGGATGAATAATCCCTCAATATAAATATCTCTCACTTATTTAAA"
target_desc = "Bacillus subtilis"
numeric_value = 0.738


Please look at ACAGACGAAGGAGCCGCAAAGAAGTTATTAAGGGAAGAATAATCCCTCAATATAAATATCTCTCACTTATTTAAA and tell me its recorded cleaved RNA product abundance on Bacillus subtilis. 0.633

Consider the sequence ACAGACGAAGGAGCCGCAAAGAACTTATTAAGGGATGAATTATCCCACAATATAAATATCTCTCACTTATTTAAA tested on Bacillus subtilis; state its cleaved RNA product abundance. 0.17

Provide measured cleaved RNA product abundance on Bacillus subtilis for ACAGACGAAGGAGCCGCAAAGAAGTTATTAAGGGATGAATAATCGCTCAAAATAAATATCTCTCACTTATTTAAA please. 0.116

Give the observed cleaved RNA product abundance of ACAGACGAAGGAGCCGCAAAGAAGTTATTAACGGATGAATAGTCCCTCAATATAAATATCTCTCACTTATTTAAA for Bacillus subtilis. 0.174

Recall the reported cleaved RNA product abundance of ACAGACGAAGGAGCCGCAACGAAGTTATTAAGGGATGAATAATCCCTCAATATACATATCTCTCACTTATTTAAA on Bacillus subtilis and write it down. 0.706

GET cleaved RNA product abundance where system = Bacillus subtilis and item = ACAGACGAAGGAGCCGCAAAGAAGTTATTAAGGTATGAATAATCCCTCAACATAAATATCTCTCACTTATTTAAA 0.11

Write down measured cleaved RNA product abundance (Bacillus subtilis) for this sequence. ACAGACGAAGGAGCCGCAAAGAAGTTATTATCGGATGAATAATCCCTCAATATAAATATCTCTCACTTATTTAAA 0.178

System Bacillus subtilis. Read-out cleaved RNA product abundance. Item ACAGACGAAGGAGCCGCAAATAAATTATTAAGGGATGAATAATACCTCAATATAAATATCTCTCACTTATTTAAA . Report value. 0.0858

// provenance: the supplement of paper PMC11780869
